The values you see were collected from patent US20160223562A1.

- measured-target: Trypsin (Sus scrofa)
- Construct: purchased Promega Corporation V511
- Sequence (P00761 9-231): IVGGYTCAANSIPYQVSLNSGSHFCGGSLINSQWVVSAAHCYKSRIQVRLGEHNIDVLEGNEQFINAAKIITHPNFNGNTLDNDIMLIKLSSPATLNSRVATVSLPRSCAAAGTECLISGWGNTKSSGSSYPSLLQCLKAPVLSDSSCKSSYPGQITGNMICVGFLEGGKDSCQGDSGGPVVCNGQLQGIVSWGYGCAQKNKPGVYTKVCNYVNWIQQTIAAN
- protocol-details: Trypsin cleavage of N-terminal quantification tag Ac-nitroTyr-SGK- from peptides, LC-MS with UV detection at 350 nm
- Type: biochemical
- study-conditions: trypsin protocol of example 9, 24 h, RT
Square brackets hold non-standard residues; d marks the D form. Peptide text beside a SMILES is read from it. Tyr(3-NO2) = N[C@@H](Cc1ccc(O)c([N+](=O)[O-])c1)C(=O)O
measured-attribute: Kusebauch 24 h, RT: Percent Cleavage of Tag [by UV350 - Peptide-Tag vs. Tag] (%)

INSERT INTO measurements (molecule, result) VALUES
  ('CC[C@H](C)[C@H](NC(=O)[C@H](Cc1ccccc1)NC(=O)[C@H](Cc1ccc(O)cc1)NC(=O)[C@H](Cc1c[nH]cn1)NC(=O)[C@@H](NC(=O)[C@@H]1CCCN1C(=O)[C@H](CCCCN)NC(=O)CNC(=O)[C@H](CO)NC(=O)[C@H](Cc1ccc(O)c([N+](=O)[O-])c1)NC(C)=O)[C@@H](C)O)C(=O)N[C@@H](CC(=O)O)C(=O)N[C@@H](CC(C)C)C(=O)N[C@@H](CC(N)=O)C(=O)N[C@@H](CCCCN)C(=O)O [Peptide 13, Ac-nitroTyr-SGKPTHYFIDLN-K-OH] (Ac-[Tyr(3-NO2)]SGKPTHYFIDLNK-OH)', 37.0),
  ('CSCC[C@H](NC(=O)[C@H](CCCCN)NC(=O)CNC(=O)[C@H](CO)NC(=O)[C@H](Cc1ccc(O)c([N+](=O)[O-])c1)NC(C)=O)C(=O)N[C@H](C(=O)N[C@@H](C)C(=O)N[C@@H](CC(C)C)C(=O)N[C@@H](CO)C(=O)N[C@@H](CC(C)C)C(=O)N[C@@H](CC(=O)O)C(=O)N[C@@H](CC(=O)O)C(=O)N[C@H](C(=O)N[C@@H](CCCCN)C(=O)O)C(C)C)C(C)C [Peptide 31, Ac-nitroTyr-SGKMVALSLDDV-K-OH] (Ac-[Tyr(3-NO2)]SGKMVALSLDDVK-OH)', 100.0);

====

Reported Percent Cleavage of Tag [by UV at 350 nm] values for the following molecules.
- measured-target: Trypsin (Sus scrofa)
- Construct: purchased Promega Corporation V511
- protocol-details: Trypsin cleavage of C-terminal quantification tag -SA-nitroTyr-G from peptides, LC-MS with UV detection at 350 nm
- Format: biochemical
- study-conditions: after reduction and alkylation, trypsin enzyme/substrate 1:50 over night at RT
Square brackets hold non-standard residues; d marks the D form. Peptide text beside a SMILES is read from it. Tyr(3-NO2) = N[C@@H](Cc1ccc(O)c([N+](=O)[O-])c1)C(=O)O
measured-attribute: Percent Cleavage of Tag [by UV at 350 nm]

INSERT INTO results (molecule, result) VALUES
  ('CC[C@H](C)[C@H](NC(=O)[C@H](Cc1ccccc1)NC(=O)[C@H](Cc1ccc(O)cc1)NC(=O)[C@H](Cc1c[nH]cn1)NC(=O)[C@@H](NC(=O)[C@@H](NC(=O)[C@H](CCCCN)NC(=O)CNC(=O)[C@H](CO)NC(=O)[C@H](Cc1ccc(O)c([N+](=O)[O-])c1)NC(C)=O)C(C)C)[C@@H](C)O)C(=O)N[C@@H](CC(=O)O)C(=O)N[C@@H](CC(C)C)C(=O)N[C@@H](CC(N)=O)C(=O)N[C@@H](CCCCN)C(=O)O [Peptide 18, Ac-nitroTyr-SGKVTHYFIDLN-K-OH] (Ac-[Tyr(3-NO2)]SGKVTHYFIDLNK-OH)', '100%'),
  ('CC[C@H](C)[C@H](NC(=O)[C@H](Cc1ccccc1)NC(=O)[C@H](Cc1ccc(O)cc1)NC(=O)[C@H](Cc1c[nH]cn1)NC(=O)[C@@H](NC(=O)CNC(=O)[C@H](CCCCN)NC(=O)CNC(=O)[C@H](CO)NC(=O)[C@H](Cc1ccc(O)c([N+](=O)[O-])c1)NC(C)=O)[C@@H](C)O)C(=O)N[C@@H](CC(=O)O)C(=O)N[C@@H](CC(C)C)C(=O)N[C@@H](CC(N)=O)C(=O)N[C@@H](CCCCN)C(=O)O [Peptide 6, Ac-nitroTyr-SGKGTHYFIDLN-K-OH] (Ac-[Tyr(3-NO2)]SGKGTHYFIDLNK-OH)', '100%'),
  ('CC[C@H](C)[C@H](NC(=O)[C@H](Cc1ccccc1)NC(=O)[C@H](Cc1ccc(O)cc1)NC(=O)[C@H](Cc1c[nH]cn1)NC(=O)[C@@H](NC(=O)[C@H](CCSC)NC(=O)[C@H](CCCCN)NC(=O)CNC(=O)[C@H](CO)NC(=O)[C@H](Cc1ccc(O)c([N+](=O)[O-])c1)NC(C)=O)[C@@H](C)O)C(=O)N[C@@H](CC(=O)O)C(=O)N[C@@H](CC(C)C)C(=O)N[C@@H](CC(N)=O)C(=O)N[C@@H](CCCCN)C(=O)O [Peptide 11, Ac-nitroTyr-SGKMTHYFIDLN-K-OH] (Ac-[Tyr(3-NO2)]SGKMTHYFIDLNK-OH)', '100%'),
  ('CC[C@H](C)[C@H](NC(=O)[C@H](Cc1ccccc1)NC(=O)[C@H](Cc1ccc(O)cc1)NC(=O)[C@H](Cc1c[nH]cn1)NC(=O)[C@@H](NC(=O)[C@H](CCC(N)=O)NC(=O)[C@H](CCCCN)NC(=O)CNC(=O)[C@H](CO)NC(=O)[C@H](Cc1ccc(O)c([N+](=O)[O-])c1)NC(C)=O)[C@@H](C)O)C(=O)N[C@@H](CC(=O)O)C(=O)N[C@@H](CC(C)C)C(=O)N[C@@H](CC(N)=O)C(=O)N[C@@H](CCCCN)C(=O)O [Peptide 14, Ac-nitroTyr-SGKQTHYFIDLN-K-OH] (Ac-[Tyr(3-NO2)]SGKQTHYFIDLNK-OH)', '99.6%');
